B1: DVL3 (parent)
chain: YNPHPGFPELGYSYGGGSASSQHS

Variants of: B1
Experiment: protein stability index of a GFP-peptide fusion (GPS, HEK-293T) (PSI 1-6); higher = more stable;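 also: lentivirally expressed fusions sorted by FACS into six bins by GFP to DsRed ratio, PSI derived from sequencing read proportions per bin multiplied by bin number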
Conditions: c terminus: a fixed tail appended
Recorded protein stability index by entry
Reply with just the number.

1) Y14K
2.95
2) S21D
3.01
3) N2Q
2.33
4) G6Y
2.17
5) H4L
2.77
6) Q22C
2.13
7) S13K
2.94
8) S24M
2.44
9) F7D
2.44
10) E9P
3.58

QUERY: Consider the variant shown here: `H4I` What is its recorded protein stability index?
RESULT: 2.51

QUERY: What value of protein stability index has been recorded for this entry: `S20G`
RESULT: 2.97
